experiment: Cmax in mouse at 25 mg/kg, ip; type: ADME, organism-based; conditions: in vivo

- mol_smiles: "Cc1c(C(=O)N[C@@H](CCC2CC2)C(=O)Nc2ccc(C#N)cc2)[nH]c2c1C(=O)CC(C)(C)C2"
  Cmax / µM: 42.4

* * *

tested on: A549; test: Antiproliferative activity against human A549 cells assessed as reduction in cell viability measured after 72 hrs by MTT assay; format: functional, cell-based; conditions: A549, 72 h

- mol_smiles: "COc1ccc2c(NC3CCN(Cc4ccccc4)CC3)nc(NCCNC(=O)CCCCC(=O)NO)nc2c1"
  EC50 / µM: 36.2

Hey, just so you know, these numbers are from ChEMBL document CHEMBL6087475.
